MEASUREMENT_TARGET: hu N(A2-B2)A-avi-His B (human)
Sequence (P06731 whole entry): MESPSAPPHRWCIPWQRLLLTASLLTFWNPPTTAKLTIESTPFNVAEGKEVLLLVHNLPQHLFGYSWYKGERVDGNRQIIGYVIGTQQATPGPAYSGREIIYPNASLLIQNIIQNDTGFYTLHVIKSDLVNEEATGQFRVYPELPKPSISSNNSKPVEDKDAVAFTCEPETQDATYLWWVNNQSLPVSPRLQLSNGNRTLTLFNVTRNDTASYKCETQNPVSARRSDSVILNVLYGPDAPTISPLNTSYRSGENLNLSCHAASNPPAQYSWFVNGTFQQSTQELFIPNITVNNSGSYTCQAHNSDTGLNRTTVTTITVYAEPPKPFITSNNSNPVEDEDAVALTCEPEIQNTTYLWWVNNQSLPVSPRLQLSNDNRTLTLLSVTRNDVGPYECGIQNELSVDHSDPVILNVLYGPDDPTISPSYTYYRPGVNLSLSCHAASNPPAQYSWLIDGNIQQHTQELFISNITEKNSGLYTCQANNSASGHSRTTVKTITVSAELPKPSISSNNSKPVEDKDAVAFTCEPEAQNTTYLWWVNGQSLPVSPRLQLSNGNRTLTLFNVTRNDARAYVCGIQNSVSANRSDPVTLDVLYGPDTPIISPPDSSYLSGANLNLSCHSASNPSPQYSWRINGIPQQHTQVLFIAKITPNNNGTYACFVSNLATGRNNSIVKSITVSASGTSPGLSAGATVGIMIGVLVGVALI
METHOD_NOTES: SPR (Biacore T200), CEA construct immobilised, Fab as analyte, 1:1 Langmuir fit
Catalogue of binders with associated log10 Kd
A difference of one corresponds to tenfold Kd; all values are log10 with Kd in nM.

Sample records with log10 Kd:
Given P1AE0289 CEA (A5B7) Fab (parental murine antibody) (Fab, V domains shown) VH: EVKLVESGGGLVQPGGSLRLSCATSGFTFTDYYMNWVRQPPGKALEWLGFIGNKANGYTTEYSASVKGRFTISRDKSQSILYLQMNTLRAEDSATYYCTRDRGLRFYFDYWGQGTTLTVSS VL: QTVLSQSPAILSASPGEKVTMTCRASSSVTYIHWYQQKPGSSPKSWIYATSNLASGVPARFSGSGSGTSYSLTISRVEAEDAATYYCQHWSSKPPTFGGGTKLEIK , respond with its log10 Kd.
-0.25

Supply recorded log10 Kd for P1AE4143 Fab derived from P1AE2182 (Fab, V domains shown) VH: EVQLLESGGGLVQPGGSLRLSCAASGFTFTDYYMNWVRQAPGKGLEWVGFIGNKANGYTTEYSASVKGRFTISRDKSKNTLYLQMNSLRAEDTAVYYCARDRGLRFYFDYWGQGTTVTVSS VL: EIVLTQSPATLSLSPGERATLSCRASSSVTYIHWYQQKPGQAPRSWIYATSNLASGIPARFSGSGSGTDFTLTISSLEPEDFAVYYCQHWSSKPPTFGQGTKLEIK here.
0.47

Tell me measured log10 Kd for P1AE4142 Fab derived from P1AE2181 (Fab, V domains shown) VH: EVQLLESGGGLVQPGGSLRLSCAASGFTFTDYYMNWVRQAPGKGLEWVGFIGNKANGYTTEYSASVKGRFTISRDKSKNTLYLQMNSLRAEDTAVYYCARDRGLRFYFDYWGQGTTVTVSS VL: EIVLTQSPATLSLSPGERATLSCRASSSVTYIHWYQQKPGSSPKSWIYATSNLASGIPARFSGSGSGTDFTLTISSLEPEDFAVYYCQHWSSKPPTFGQGTKLEIK please.
0.42

Let me know recorded log10 Kd for P1AE4139 Fab derived from P1AE2176 (Fab, V domains shown) VH: EVQLLESGGGLVQPGGSLRLSCAASGFTFTDYYMNWVRQAPGKGLEWVGFIGNKANGYTTEYSASVKGRFTISRDNSKNTLYLQMNSLRAEDTAVYYCTRDRGLRFYFDYWGQGTTVTVSS VL: EIVLTQSPATLSLSPGERATLSCRASSSVTYIHWYQQKPGSSPKSWIYATSNLASGIPARFSGSGSGTDFTLTISSLEPEDFAVYYCQHWSSKPPTFGQGTKLEIK , thanks.
0.88

Name the recorded log10 Kd of the binder listed here: P1AE4141 Fab derived from P1AE2179 (Fab, V domains shown) VH: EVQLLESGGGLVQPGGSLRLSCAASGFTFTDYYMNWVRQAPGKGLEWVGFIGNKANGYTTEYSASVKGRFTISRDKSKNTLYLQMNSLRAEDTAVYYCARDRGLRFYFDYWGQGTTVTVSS VL: QTVLTQSPATLSLSPGERATLSCRASSSVTYIHWYQQKPGSSPKSWIYATSNLASGIPARFSGSGSGTDYTLTISSLEPEDFAVYYCQHWSSKPPTFGQGTKLEIK
0.26

Continuing:
Specify reported log10 Kd for the binder shown: P1AE4136 Fab derived from P1AE2165 (Fab, V domains shown) VH: EVQLLESGGGLVQPGGSLRLSCAASGFTFTDYYMNWVRQAPGKGLEWLGFIGNKANGYTTEYSASVKGRFTISRDKSKNTLYLQMNSLRAEDTATYYCTRDRGLRFYFDYWGQGTTVTVSS VL: QTVLTQSPATLSLSPGERATLSCRASSSVTYIHWYQQKPGQAPRLLIYATSNLASGIPARFSGSGSGTDFTLTISSLEPEDFAVYYCQHWSSKPPTFGQGTKLEIK
0.10

Supply recorded log10 Kd for P1AE4140 Fab derived from P1AE2177 (Fab, V domains shown) VH: EVQLLESGGGLVQPGGSLRLSCAASGFTFTDYYMNWVRQAPGKGLEWVGFIGNKANGYTTEYSASVKGRFTISRDNSKNTLYLQMNSLRAEDTAVYYCTRDRGLRFYFDYWGQGTTVTVSS VL: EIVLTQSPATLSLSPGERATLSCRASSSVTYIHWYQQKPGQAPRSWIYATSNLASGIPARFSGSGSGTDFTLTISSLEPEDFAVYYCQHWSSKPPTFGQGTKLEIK here.
0.88

Look up log10 Kd of P1AE4137 Fab derived from P1AE2166 (Fab, V domains shown) VH: EVQLLESGGGLVQPGGSLRLSCAASGFTFTDYYMNWVRQAPGKGLEWLGFIGNKANGYTTEYSASVKGRFTISRDKSKNTLYLQMNSLRAEDTATYYCTRDRGLRFYFDYWGQGTTVTVSS VL: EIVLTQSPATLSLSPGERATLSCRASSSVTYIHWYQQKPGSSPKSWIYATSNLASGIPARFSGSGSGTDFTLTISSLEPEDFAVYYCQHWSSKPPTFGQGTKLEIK and report it.
1.05
